# EXPERIMENT_SUMMARY: Aqueous solubility determination
# Type: physicochemical
# REPORTED_CONDITIONS: aqueous buffer, pH 7.4, aqueous buffer, thermodynamic from solid
TEST_READOUT: solubility at 24 h (mg/mL)
The answer is to be given in mg/mL; state only the numeric part.

Q. Query (compound): NC(=O)c1ccc[n+]([C@@H]2O[C@H](CO)[C@@H](O)[C@H]2O)c1 [NRCl, nicotinamide riboside chloride] ; field requested: solubility at 24 h
A. 826

---

# EXPERIMENT_SUMMARY: Experimental determination of pKa by UV spectroscopy
# Assay type: physicochemical
# REPORTED_CONDITIONS: NaOH solutions; first focused experiment, pH range 11.0–12.2
# Method: NR stock solution was added to nine respective buffer solutions ranging from pH 1.5 to 12.8 and analysed by UV spectroscopic scanning over 200–500 nm using a Cary 50 scan UV-visible spectrophotometer (Agilent Technologies, USA). […] Equation 1 is a modified Beers–Lambert and Henderson–Hasselbalch equation ([14]). This was used to calculate pKa. AI is the absorbance of the ionised species, AM is the absorbance of the molecular species, and A is the absorbance at any given pH. […]
TEST_READOUT: pKa

Q. Query (compound): NC(=O)c1ccc[n+]([C@@H]2O[C@H](CO)[C@@H](O)[C@H]2O)c1 [NRCl, nicotinamide riboside chloride] ; field requested: pKa
A. 11.5
